system: K562 cells; assay: K562 cell proliferation assay (CellTiter-Glo); type: cell-based; settings: Homo sapiens; K562 cell line, 72 hours, cell viability
pIC50: −log10 of the molar value.
Recorded measurements of pIC50, one per entry
endpoint name: pIC50

>>> value_reported("Cc1c(F)cncc1-c1cc2cnc(NC(=O)C3CC3)cc2n(C)c1=O")
7.55
>>> value_reported("Cc1c(F)cncc1-c1cc2cnc(NC(=O)[C@@H]3C[C@@H]3F)cc2n(C)c1=O")
7.33

---

system: HepG2 (NRAS Q61L); test: Cell viability assay (CellTiter Glo); assay type: cell-based; settings: HepG2, 750 cells per well, 120 hours; read-out: BRAF Cytotoxicity (IC50, nM) HEPG2
endpoint name: IC50

>>> value_reported("COCC(O)c1cc(C)c(-c2cc3cnc(NC(=O)C4CC4)cc3n(C)c2=O)cn1 (single isomer, unassigned) [Example S60, Enantiomer A]")
"> 10000 nM"
>>> value_reported("CCC(O)c1cc(C)c(-c2cc3cnc(NC(=O)[C@@H]4C[C@@H]4F)cc3n(C)c2=O)cn1 (single isomer, unassigned; isomer a) [Example S40, Isomer A]")
"211 nM"
>>> value_reported("COCC(O)c1cc(C)c(-c2cc3cnc(NC(=O)C4CC4)cc3n(C)c2=O)cn1 (single isomer, unassigned) [Example S60, Enantiomer B]")
"225 nM"
>>> value_reported("CCC(O)c1cc(C)c(-c2cc3cnc(NC(=O)[C@H]4CC4(F)F)cc3n(C)c2=O)cn1 (single isomer, unassigned) [Example S49, Isomer A]")
"2750 nM"
>>> value_reported("CCCC(O)c1cc(C)c(-c2cc3cnc(NC(=O)[C@H]4C[C@H]4F)cc3n(C)c2=O)cn1 (single isomer, unassigned) [Example S43, Isomer B]")
"843 nM"
>>> value_reported("CCCC(O)c1cc(C)c(-c2cc3cnc(NC(=O)[C@H]4C[C@H]4F)cc3n(C)c2=O)cn1 (single isomer, unassigned) [Example S43, Isomer A]")
"82.1 nM"
>>> value_reported("CCC(O)c1cc(C)c(-c2cc3cnc(NC(=O)[C@H]4CC4(F)F)cc3n(C)c2=O)cn1 (single isomer, unassigned) [Example S49, Isomer B]")
"12.6 nM"

Origin of the recorded values: patent US20240287062A1
